Origin of the recorded values: patent US10821100B2

Biological target: Recombinant human mPGES-1 (Homo sapiens)
Construct: made in house; host or cells: CHO cells (crude microsomal fractions)
Sequence (O14684 1-152): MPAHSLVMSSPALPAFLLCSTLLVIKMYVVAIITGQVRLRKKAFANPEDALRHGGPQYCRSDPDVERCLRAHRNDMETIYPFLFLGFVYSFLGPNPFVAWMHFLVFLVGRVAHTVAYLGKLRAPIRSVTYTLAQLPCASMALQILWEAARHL
Test: In-vitro screening of mPGES-1 inhibitors (inhibition of PGE2 formation from PGH2, HTRF detection)
Assay type: biochemical
Conditions: 10 μM test compound; mPGES-1 enzyme, crude microsomal fractions; read-out: Percentage inhibition at 10 μM
Readout: inhibition at 10 µM (%)

Would you please look over these solved cases?
1) Cc1cc(C(F)(F)F)ccc1-n1nc(-c2cc(CNC(=O)C(C)(C)C)ccc2Cl)[nH]c1=O 96.8
2) COc1cc(-c2nn(-c3c(Cl)cccc3Cl)c(=O)[nH]2)ccc1C#Cc1cc(Cl)ccc1Cl 99.6
3) CC(C)C(=O)NCc1cnc(C(F)F)c(-c2nn(-c3ccc(C(F)(F)F)cc3)c(=O)[nH]2)c1 97.5
4) CC(C)(C)C(=O)NCc1ccc(Cl)c(-n2nc(-c3c(F)cccc3Cl)[nH]c2=O)c1F 39.2
5) COc1cc(-n2nc(-c3c(F)cccc3Cl)[nH]c2=O)ccc1C#Cc1cccc(Cl)c1F 93.1
6) CC1(C)CCC(n2nc(-c3cc(CNC(=O)C(C)(C)C)ccc3Cl)[nH]c2=O)CC1 87.8

a = COc1cc(-n2nc(-c3c(F)cccc3Cl)[nH]c2=O)ccc1C(=O)NCc1ccccc1C(F)(F)F
b = CC(C)(C)C(=O)NCc1ccc(Cl)c(-c2nn(C3CCCCC3)c(=O)[nH]2)c1F
Q: Lowest inhibition at 10 µM? choose a or b Answer by stating the label of the chosen item.
A: b

a = COc1cc(-c2nn(-c3c(Cl)cccc3Cl)c(=O)[nH]2)ccc1C(=O)Nc1cccc(C(F)(F)F)c1
b = CCn1c(-c2c(Cl)cccc2Cl)nn(-c2ccc(C(=O)Nc3cccc(C(F)(F)F)c3)c(OC)c2)c1=O
Q: Given the listed records, identify the one among a and b with higher inhibition at 10 µM. Answer by stating the label of the chosen item.
A: a

---

molecular target: Recombinant human mPGES-1 (Homo sapiens, UniProt O14684); construct: made in house; host or cells: CHO cells (crude microsomal fractions); test: In-vitro screening of mPGES-1 inhibitors (inhibition of PGE2 formation from PGH2, HTRF detection); format: biochemical; conditions: 10 μM test compound; mPGES-1 enzyme, crude microsomal fractions; read-out: Percentage inhibition at 10 μM
Readout: inhibition at 10 µM (%)

Would you please look over these solved cases?
1) CC(C)(C)C(=O)NCc1ccc(Cl)c(-c2nn(-c3ccc(C(F)(F)F)cc3)c(=O)[nH]2)c1 98.6
2) O=C(Nc1ccc(F)c(C(F)(F)F)c1)c1ccc(-n2nc(-c3c(F)cccc3Cl)[nH]c2=O)cc1 94
3) CC(C)(C)C(=O)NCc1ccc(Cl)c(-c2nn(-c3ccc(C(F)(F)F)cc3)c(=O)[nH]2)c1F 99.5
4) CC(C)(C)C(=O)NCc1ccc(Cl)c(-c2nn(C(C)(C)C)c(=O)[nH]2)c1 72.5
5) Cc1ccc(-n2nc(-c3cc(CNC(=O)C(C)(C)C)c(F)cc3Cl)[nH]c2=O)cc1Cl 98.9
6) COCCCNc1nc(-c2c(F)cccc2Cl)nn1-c1ccc(Br)cc1 71.7

A = COc1cc(-n2nc(-c3c(C)cccc3Cl)[nH]c2=O)ccc1C(=O)Nc1cccc(C(F)(F)F)c1
B = COc1cc(-n2nc(-c3c(Cl)cccc3Cl)[nH]c2=O)ccc1C(=O)Nc1cc(CNC(=O)C2CC2)ccc1Cl
Q: Given the listed records, identify the one among A and B with higher inhibition at 10 µM. Answer by stating the label of the chosen item.
A: A
(A: 98.5%, B: 63.8%)

---

Molecular target: Recombinant human mPGES-1 (Homo sapiens)
Construct: made in house; host or cells: CHO cells (crude microsomal fractions)
Sequence (O14684 1-152): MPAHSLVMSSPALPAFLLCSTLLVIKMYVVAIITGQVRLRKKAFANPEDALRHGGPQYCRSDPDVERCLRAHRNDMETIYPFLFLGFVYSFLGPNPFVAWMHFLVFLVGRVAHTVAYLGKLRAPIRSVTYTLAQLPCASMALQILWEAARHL
Test: In-vitro screening of mPGES-1 inhibitors (inhibition of PGE2 formation from PGH2, HTRF detection)
Type: biochemical
Details: 1 μM test compound; mPGES-1 enzyme, crude microsomal fractions; read-out: Percentage inhibition at 1 μM
Readout: inhibition at 1 µM (%)

Compound	Measured Target	inhibition at 1 µM, %
COc1cc(-c2nn(-c3c(Cl)cccc3Cl)c(=O)[nH]2)ccc1C#Cc1cccc(Cl)c1F [Example-74]	Recombinant human mPGES-1 (Homo sapiens)	93.2
O=C(NCc1ccc(Cl)c(-c2nn(-c3ccc(C(F)(F)F)cc3)c(=O)[nH]2)c1)C1CCC1 [Example-184]	Recombinant human mPGES-1 (Homo sapiens)	98.6
CC(C)(C)C#Cc1ccc(-c2nn(-c3cc(CNC(=O)C(C)(C)C)c(F)cc3Cl)c(=O)[nH]2)cc1 [Example-137]	Recombinant human mPGES-1 (Homo sapiens)	93.4
CC(C)(C)C(=O)NCc1cc(-c2nn(-c3ccc(F)c(Cl)c3)c(=O)[nH]2)c(Cl)cc1F [Example-131]	Recombinant human mPGES-1 (Homo sapiens)	100

---

biological target: Recombinant human mPGES-1 (Homo sapiens); construct: made in house; host or cells: CHO cells (crude microsomal fractions); test: In-vitro screening of mPGES-1 inhibitors (inhibition of PGE2 formation from PGH2, HTRF detection); type: biochemical; conditions: 1 μM test compound; mPGES-1 enzyme, crude microsomal fractions; read-out: Percentage inhibition at 1 μM
Readout: inhibition at 1 µM (%)

Would you please look over these solved cases?
1. COc1cc(-n2nc(-c3c(Cl)cccc3Cl)[nH]c2=O)ccc1-c1nc(-c2ccc(Cl)cc2)no1 89.2
2. O=C(NCc1ccc(Cl)c(-n2nc(-c3ccc(C#Cc4cc(Cl)ccc4Cl)cc3F)[nH]c2=O)c1)C1CC1 99.9

P = COc1ccc(-n2nc(-c3c(F)cccc3Cl)[nH]c2=O)cc1C(=O)NC1(c2ccc(C(F)(F)F)cc2)CC1
Q = COc1cc(-n2nc(-c3c(F)cccc3Cl)[nH]c2=O)ccc1C(=O)Nc1ccc(C)cc1F
Q: Lowest inhibition at 1 µM? choose P or Q Answer by stating the label of the chosen item.
A: P
(P: 13.2%, Q: 90.1%)

---

target: Recombinant human mPGES-1 (Homo sapiens); construct: made in house; host or cells: CHO cells (crude microsomal fractions); experiment: In-vitro screening of mPGES-1 inhibitors (inhibition of PGE2 formation from PGH2, HTRF detection); type: biochemical; details: mPGES-1 enzyme; class symbols
pIC50: −log10 of the molar value.
Reported values of pIC50 for individual entries

Would you please look over these solved cases?
1) Cc1ccc(CNC(=O)C(C)(C)C)c(C)c1-c1nn(-c2ccc(C(F)(F)F)cc2)c(=O)[nH]1 < 7.00
2) CC(C)(C)C(=O)NCc1ccc(Cl)c(-c2nn(-c3ccc(C(F)(F)F)cc3)c(=O)[nH]2)c1F > 7.30
3) CC(C)C(=O)NCc1cc(-c2nn(-c3ccc(C(F)(F)F)cc3)c(=O)[nH]2)c(Cl)cc1F > 7.30
4) CC(C)(C)C(=O)NCc1ccc(Cl)c(-n2nc(-c3ccc(C#CC4CC4)cc3F)[nH]c2=O)c1 > 7.30
5) COc1cc(-c2nn(-c3c(Cl)cccc3Cl)c(=O)[nH]2)ccc1C(=O)Nc1ccc(F)c(C(F)(F)F)c1 7.00 to 7.30
6) COc1cc(-n2nc(-c3c(C)cccc3Cl)[nH]c2=O)ccc1C(=O)Nc1ccc(F)c(C(F)F)c1 > 7.30

Now examine the next entry.
Q: // map CC(C)(C)C(=O)NCc1ccc(Cl)c(-n2nc(-c3ccc(Cl)c(C(F)(F)F)c3)[nH]c2=O)c1 to recorded pIC50 (system: Recombinant human mPGES-1 (Homo sapiens))
A: > 7.30

---

Biological target: Recombinant human mPGES-1 (Homo sapiens, UniProt O14684)
Construct: made in house; host or cells: CHO cells (crude microsomal fractions)
Sequence (O14684 1-152): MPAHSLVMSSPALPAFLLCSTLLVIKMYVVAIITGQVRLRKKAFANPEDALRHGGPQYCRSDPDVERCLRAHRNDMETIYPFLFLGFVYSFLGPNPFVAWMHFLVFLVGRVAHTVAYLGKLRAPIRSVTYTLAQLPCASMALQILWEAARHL
Experiment: In-vitro screening of mPGES-1 inhibitors (inhibition of PGE2 formation from PGH2, HTRF detection)
Type: biochemical
Conditions: 1 μM test compound; mPGES-1 enzyme, crude microsomal fractions; read-out: Percentage inhibition at 1 μM
Readout: inhibition at 1 µM (%)

Compound	Measured Target	Number
CC(C)(C)C(=O)NCc1ccc(Cl)c(-n2nc(-c3ccc(Cl)cc3F)[nH]c2=O)c1F [Example-90]	Recombinant human mPGES-1 (Homo sapiens, UniProt O14684)	81.7
COc1cc(-n2nc(-c3c(F)cccc3Cl)[nH]c2=O)ccc1C#Cc1cccc(Cl)c1F [Example-60]	Recombinant human mPGES-1 (Homo sapiens, UniProt O14684)	95.4
CC(C)(C)C(=O)NCc1ccc(Cl)c(-n2nc(-c3ccc(C#CC4CC4)cc3F)[nH]c2=O)c1 [Example-168]	Recombinant human mPGES-1 (Homo sapiens, UniProt O14684)	100

I = COc1cc(-n2nc(-c3c(F)cccc3Cl)[nH]c2=O)ccc1C(=O)NC1(c2ccc(C(F)(F)F)cc2)CC1 [Example-27]
II = N#Cc1cnc(C(F)F)c(-c2nn(-c3ccc(C(F)(F)F)cc3)c(=O)[nH]2)c1 [Example-183]
Q: Lowest inhibition at 1 µM? choose I or II Answer by stating the label of the chosen item.
A: II
(II: 41.5%, I: 72.8%)
